The following compounds are listed with their measured Emax values.
# Target: ligand binding domain of human FXR (Homo sapiens (Human))
# Sequence (Q96RI1 262-486): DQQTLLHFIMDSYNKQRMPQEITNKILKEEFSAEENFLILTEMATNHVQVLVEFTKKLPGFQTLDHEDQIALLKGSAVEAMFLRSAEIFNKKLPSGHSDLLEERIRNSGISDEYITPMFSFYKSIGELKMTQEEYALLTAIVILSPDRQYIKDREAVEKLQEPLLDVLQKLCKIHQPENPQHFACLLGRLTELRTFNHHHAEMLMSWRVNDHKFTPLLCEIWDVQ
# Assay Explanation: FXR ligand binding assay (LanthaScreen TR-FRET, SRC2-2 peptide recruitment)
# Condition: extent of activation relative to GW4064; read-out: % Efficacy
Quantity: Emax

[[record]]
compound = "O=C(O)c1ccc(N2C[C@@H]3C[C@H]2C[C@H]3OC(=O)c2c(-c3c(Cl)cccc3Cl)noc2C2CC2)cc1 [Compound I-42]"
result = "166%"

[[record]]
compound = "CCCS(=O)(=O)NC(=O)c1ccc(N2C[C@@H]3C[C@H]2C[C@H]3OCc2c(-c3c(Cl)cccc3Cl)noc2C2CC2)c(F)c1 [Compound I-61]"
result = "174%"

[[record]]
compound = "O=C(NS(=O)(=O)C1CCCC1)c1ccc(N2C(=O)[C@@H]3C[C@H]2C[C@H]3OCc2c(-c3c(Cl)cccc3Cl)noc2C2CC2)cc1 [Compound I-343]"
result = "176%"

